target: G2019S LRRK2 (Homo sapiens, UniProt Q5S007, G2019S); construct: expressed in transfected cells; host or cells: HEK293 (ATCC CRL-1573), transient transfection, mammalian expression vector with ubiquitin promoter; assay: LRRK2 degradation assay, HiBit-tagged G2019S LRRK2 expressed from plasmid in HEK293 cells (Nano-Glo Dual-Luciferase); format: cell-based; settings: HiBit-tagged G2019S LRRK2, HEK293 cells, 24 hours
Sequence (Q5S007 whole entry G2019S): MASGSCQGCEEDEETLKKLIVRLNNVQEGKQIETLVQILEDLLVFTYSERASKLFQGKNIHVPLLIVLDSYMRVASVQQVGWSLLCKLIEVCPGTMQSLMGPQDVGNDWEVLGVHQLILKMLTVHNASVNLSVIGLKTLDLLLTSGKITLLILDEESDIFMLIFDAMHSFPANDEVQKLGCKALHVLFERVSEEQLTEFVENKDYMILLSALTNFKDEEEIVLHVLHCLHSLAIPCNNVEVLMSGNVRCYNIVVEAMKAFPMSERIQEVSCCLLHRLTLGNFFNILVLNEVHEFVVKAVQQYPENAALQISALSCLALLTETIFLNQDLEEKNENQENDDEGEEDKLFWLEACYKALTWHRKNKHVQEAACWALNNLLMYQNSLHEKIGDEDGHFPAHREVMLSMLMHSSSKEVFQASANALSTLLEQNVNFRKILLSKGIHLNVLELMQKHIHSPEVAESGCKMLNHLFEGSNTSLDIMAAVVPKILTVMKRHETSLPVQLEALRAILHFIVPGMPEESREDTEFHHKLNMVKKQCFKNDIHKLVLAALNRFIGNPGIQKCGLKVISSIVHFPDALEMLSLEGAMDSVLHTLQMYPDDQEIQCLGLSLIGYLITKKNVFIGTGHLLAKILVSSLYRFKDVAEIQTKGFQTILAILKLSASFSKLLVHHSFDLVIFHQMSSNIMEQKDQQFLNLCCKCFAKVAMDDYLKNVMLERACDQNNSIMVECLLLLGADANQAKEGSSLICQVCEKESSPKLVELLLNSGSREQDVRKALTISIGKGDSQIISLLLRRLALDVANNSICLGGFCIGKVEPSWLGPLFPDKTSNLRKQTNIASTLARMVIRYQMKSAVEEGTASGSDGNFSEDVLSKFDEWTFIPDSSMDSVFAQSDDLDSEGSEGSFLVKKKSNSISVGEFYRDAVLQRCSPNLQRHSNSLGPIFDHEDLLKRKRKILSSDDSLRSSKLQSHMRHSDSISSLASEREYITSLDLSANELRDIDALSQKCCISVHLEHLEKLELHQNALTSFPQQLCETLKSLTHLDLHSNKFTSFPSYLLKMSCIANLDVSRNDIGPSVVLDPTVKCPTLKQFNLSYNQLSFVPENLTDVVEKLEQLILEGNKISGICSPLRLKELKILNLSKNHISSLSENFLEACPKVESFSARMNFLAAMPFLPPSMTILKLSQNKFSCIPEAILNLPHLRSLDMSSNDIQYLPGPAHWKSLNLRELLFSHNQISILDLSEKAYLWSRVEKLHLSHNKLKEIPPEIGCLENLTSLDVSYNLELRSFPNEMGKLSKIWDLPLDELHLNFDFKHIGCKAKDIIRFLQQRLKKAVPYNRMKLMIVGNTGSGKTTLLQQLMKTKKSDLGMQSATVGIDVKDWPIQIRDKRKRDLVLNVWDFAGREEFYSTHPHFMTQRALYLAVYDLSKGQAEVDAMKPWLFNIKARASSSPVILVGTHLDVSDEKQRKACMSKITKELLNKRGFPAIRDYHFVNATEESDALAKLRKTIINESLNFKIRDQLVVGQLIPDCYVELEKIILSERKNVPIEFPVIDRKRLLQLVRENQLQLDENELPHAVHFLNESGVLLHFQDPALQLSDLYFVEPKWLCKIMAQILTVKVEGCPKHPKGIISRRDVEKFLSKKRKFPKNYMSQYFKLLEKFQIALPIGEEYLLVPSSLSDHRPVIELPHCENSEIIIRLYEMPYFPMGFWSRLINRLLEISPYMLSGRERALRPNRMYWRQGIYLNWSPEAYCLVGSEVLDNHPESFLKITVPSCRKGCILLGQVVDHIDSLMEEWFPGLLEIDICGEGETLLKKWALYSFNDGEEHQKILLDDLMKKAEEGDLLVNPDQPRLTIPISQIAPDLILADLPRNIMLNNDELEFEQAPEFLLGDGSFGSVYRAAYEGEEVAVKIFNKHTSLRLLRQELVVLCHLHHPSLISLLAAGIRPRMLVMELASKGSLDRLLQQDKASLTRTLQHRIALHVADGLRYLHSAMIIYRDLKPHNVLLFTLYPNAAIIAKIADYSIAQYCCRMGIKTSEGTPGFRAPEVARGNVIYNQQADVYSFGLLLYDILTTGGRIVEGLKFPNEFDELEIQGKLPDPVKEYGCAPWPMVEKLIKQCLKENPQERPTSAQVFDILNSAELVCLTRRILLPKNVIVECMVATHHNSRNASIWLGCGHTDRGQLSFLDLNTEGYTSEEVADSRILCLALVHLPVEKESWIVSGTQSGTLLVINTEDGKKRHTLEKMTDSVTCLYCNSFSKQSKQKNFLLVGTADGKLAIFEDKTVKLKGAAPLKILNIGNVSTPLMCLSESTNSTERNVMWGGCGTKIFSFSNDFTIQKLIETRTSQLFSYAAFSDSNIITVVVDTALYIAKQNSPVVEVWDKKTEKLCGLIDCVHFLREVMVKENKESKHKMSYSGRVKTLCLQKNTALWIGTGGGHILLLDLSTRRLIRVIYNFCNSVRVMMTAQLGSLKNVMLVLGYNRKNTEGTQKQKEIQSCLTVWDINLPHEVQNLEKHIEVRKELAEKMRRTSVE
Outcome measure: Dmax

# Molecule, Dmax
data = [
    ("CC1(Oc2ccc3[nH]nc(-c4ccnc(N5CC6(CCN6CC6CCN(CC7CCN(c8ccc9c(c8)C(=O)N(C8CCC(=O)NC8=O)C9=O)CC7)CC6)C5)c4)c3c2)CC1 (stereo not drawn)", "< 50%"),
]

Entry under review: C[C@H]1CN(c2cc(-c3[nH]nc4ccc(OC5(C)CC5)cc34)ncn2)CCN1Cc1cn(CC2CCN(c3ccc4c(c3)C(=O)N(C3CCC(=O)NC3=O)C4=O)CC2)nn1 (stereo partly drawn) . Reported Dmax?
< 50%

Let us now turn to CC1(Oc2ccc3[nH]nc(-c4cc(N5CC(CC6CCN(CC7CCN(c8ccc9c(c8)C(=O)N(C8CCC(=O)NC8=O)C9=O)CC7)CC6)C5)ncn4)c3c2)CC1 (stereo not drawn)
≥ 70%

###

target: wildtype LRRK2 (Homo sapiens); construct: expressed in transfected cells; host or cells: HEK293 (ATCC CRL-1573), transient transfection, mammalian expression vector with ubiquitin promoter; test: LRRK2 degradation assay, HiBit-tagged wildtype LRRK2 expressed from plasmid in HEK293 cells (Nano-Glo Dual-Luciferase); format: cell-based; settings: HiBit-tagged wildtype LRRK2 in HEK293 cells, 24 hours; read-out: *WT DC50
Sequence (Q5S007 whole entry): as the sequence (Q5S007 whole entry G2019S) above, with S2019G counted along it
Catalogue of DC50 values

Examples with their reported DC50 follow.
# Compound, DC50
measured = [
    ("CC1(Oc2ccc3[nH]nc(-c4cc(N5CCC(CN6CC[C@@H](OC7CCN(c8ccc9c(c8)C(=O)N(C8CCC(=O)NC8=O)C9=O)CC7)C6)CC5)ncn4)c3c2)CC1 (some centres unmarked)", "< 10 nM"),
    ("C[C@H]1CN(c2cc(-c3n[nH]c4ccc(OC5(C)CC5)cc34)ncn2)CCN1CC1(F)CCN(CC2CCN(c3ccc4c(c3)C(=O)N(C3CCC(=O)NC3=O)C4=O)CC2)CC1 (some centres unmarked)", "< 10 nM"),
    ("CC1(Oc2ccc3[nH]nc(-c4cc(N5CCN(CCN6CCN(CC7CCN(c8ccc9c(c8)C(=O)N(C8CCC(=O)NC8=O)C9=O)CC7)CC6)CC5)ncn4)c3c2)CC1 (centres unmarked)", "< 10 nM"),
]

What DC50 appears in the records for this compound with wildtype LRRK2 (Homo sapiens)? C[C@H]1CN(c2cc(-c3n[nH]c4ccc(OC5CC5)cc34)ncn2)CCN1CC1CCN(CC2CCN(c3ccc4c(c3)C(=O)N(C3CCC(=O)NC3=O)C4=O)CC2)CC1 (some centres unmarked)
10 to 50 nM

Let us now turn to CC1(Oc2ccc3[nH]nc(-c4ccnc(N5CCN(C[C@H]6CC[C@H](CN7CCN(c8ccc9c(c8)C(=O)N(C8CCC(=O)NC8=O)C9=O)CC7)CC6)CC5)c4)c3c2)CC1 (some centres unmarked)
10 to 50 nM

Let us now turn to CC1(Oc2ccc3[nH]nc(-c4ccnc(N5CCOC6(CN(CC7CCN(CC8CCN(c9cccc%10c9C(=O)N(C9CCC(=O)NC9=O)C%10=O)CC8)CC7)C6)C5)c4)c3c2)CC1 (centres unmarked)
10 to 50 nM

Let us now turn to CC1(Oc2ccc3[nH]nc(-c4cc(N5CCC(O[C@@H]6CCN(CC7CCN(c8ccc9c(c8)C(=O)N(C8CCC(=O)NC8=O)C9=O)CC7)C6)CC5)ncn4)c3c2)CC1 (some centres unmarked)
< 10 nM

Let us now turn to CC1(Oc2ccc3[nH]nc(-c4cc(N5CCN(CC6CCN(CC7CCN(c8ccc9c(c8)C(=O)N(C8CCC(=O)NC8=O)C9=O)CC7)CC6)CC5)ncn4)c3c2)CC1 (centres unmarked)
< 10 nM

Let us now turn to CC1(Oc2ccc3[nH]nc(-c4ccnc(N5CCOC6(CN(CC7CCN(CC8CCN(c9ccc%10c(c9)C(=O)N(C9CCC(=O)NC9=O)C%10=O)CC8)CC7)C6)C5)c4)c3c2)CC1 (centres unmarked)
< 10 nM
